# testedSystem: NAMPT (human, recombinant, C-terminally His-tagged) (Homo sapiens)
# methodNotes: Time-Resolved Fluorescence Resonance Energy Transfer (TR-FRET) Binding Assay of NAMPT
# settings: without substrates; 6.8 nM NAMPT, 200 nM probe, 3 hours equilibration
Listed here are molecules together with their documented IC50.
propertyMeasured: IC50 (nM)

[[record]]
molecule = "O=C(NCc1ccn2ccnc2c1)Nc1ccc(O[C@@H]2CCN(C(=O)[C@H]3CCCO3)C2)cc1 [Example 335]"
testedsystem = "NAMPT (human, recombinant, C-terminally His-tagged) (Homo sapiens)"
unitstring = "nM"
assayvalue = 632

[[record]]
molecule = "CC(C)S(=O)(=O)N1CC(c2ccc(C(=O)NCc3ccn4ccnc4c3)cc2)C1 [Example 557]"
testedsystem = "NAMPT (human, recombinant, C-terminally His-tagged) (Homo sapiens)"
unitstring = "nM"
assayvalue = 167

[[record]]
molecule = "CC(C)CC(=O)N1CCC(O)(c2ccc(C(=O)NCc3ccn4ccnc4c3)s2)CC1 [Example 553]"
testedsystem = "NAMPT (human, recombinant, C-terminally His-tagged) (Homo sapiens)"
unitstring = "nM"
assayvalue = 478

[[record]]
molecule = "CC(C)C(C)C(=O)N1CC(c2ccc(C(=O)NCc3ccn4ccnc4c3)cc2)C1 (stereo not shown) [Example 666]"
testedsystem = "NAMPT (human, recombinant, C-terminally His-tagged) (Homo sapiens)"
unitstring = "nM"
assayvalue = 193


---

# testedSystem: NAMPT (human, recombinant, C-terminally His-tagged) (Homo sapiens, UniProt P43490)
# Sequence (P43490 whole entry): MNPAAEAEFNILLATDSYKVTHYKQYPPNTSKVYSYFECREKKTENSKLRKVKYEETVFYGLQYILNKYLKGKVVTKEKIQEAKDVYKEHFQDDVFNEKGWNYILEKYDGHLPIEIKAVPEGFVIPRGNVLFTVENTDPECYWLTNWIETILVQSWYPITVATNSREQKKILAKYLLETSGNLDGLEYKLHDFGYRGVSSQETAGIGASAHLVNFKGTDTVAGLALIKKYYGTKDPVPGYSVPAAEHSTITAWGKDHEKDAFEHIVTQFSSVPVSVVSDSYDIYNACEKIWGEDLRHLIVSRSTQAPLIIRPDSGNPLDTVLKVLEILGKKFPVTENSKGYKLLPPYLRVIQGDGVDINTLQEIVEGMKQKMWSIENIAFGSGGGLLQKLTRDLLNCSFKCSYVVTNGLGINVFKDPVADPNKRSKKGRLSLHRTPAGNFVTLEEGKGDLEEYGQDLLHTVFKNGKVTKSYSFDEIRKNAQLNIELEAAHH
# methodNotes: Time-Resolved Fluorescence Resonance Energy Transfer (TR-FRET) Binding Assay of NAMPT
# settings: without substrates; 6.8 nM NAMPT, 200 nM probe, 3 hours equilibration
Listed here are molecules together with their documented IC50.
propertyMeasured: IC50 (nM)

[[record]]
molecule = "O=C(NCc1ccn2ccnc2c1)Nc1ccc(C2CCN(C(=O)C3CCC(F)(F)CC3)CC2)cc1"
censoringsign = "="
assayvalue = 65.9

[[record]]
molecule = "CC(C)Cn1cc(-c2ccc(C(=O)NCc3ccn4ccnc4c3)s2)cn1"
censoringsign = "="
assayvalue = 28.3

[[record]]
molecule = "O=C(NCc1ccn2ccnc2c1)c1ccc(O[C@H]2CCN(C(=O)[C@@H]3CCOC3)C2)cc1"
censoringsign = ">"
assayvalue = 10000

[[record]]
molecule = "O=C(NCc1ccn2ccnc2c1)Nc1ccc(O[C@@H]2CCN(C(=O)c3ccc(C(F)(F)F)cc3)C2)cc1"
censoringsign = "="
assayvalue = 781

[[record]]
molecule = "CC1(Cn2cc(-c3ccc(C(=O)NCc4ccn5ccnc5c4)s3)cn2)CCOCC1"
censoringsign = "="
assayvalue = 16

[[record]]
molecule = "CC(C)C(C)C(=O)N1CCC(c2ccc(C(=O)NCc3ccn4ccnc4c3)s2)C1 (stereo not drawn)"
censoringsign = "="
assayvalue = 82.1

[[record]]
molecule = "O=C(NCc1ccn2ccnc2c1)c1cnc(N(C[C@H]2CCCO2)C(=O)Cc2ccon2)s1"
censoringsign = "="
assayvalue = 238

[[record]]
molecule = "O=C(NCc1ccn2ccnc2c1)Nc1ccc(O[C@@H]2CCN(C(=O)C3CCOCC3)C2)cc1"
censoringsign = "="
assayvalue = 583

[[record]]
molecule = "CC(C)CC(=O)N1CCC(c2ncc(C(=O)NCc3ccn4ccnc4c3)s2)CC1"
censoringsign = "="
assayvalue = 871

[[record]]
molecule = "CC1(C(=O)N2CCC(c3ccc(C(=O)NCc4ccn5ccnc5c4)cc3)C2)CC1 (stereo not drawn)"
censoringsign = "="
assayvalue = 811

[[record]]
molecule = "CC1(C(=O)N2CC(c3ccc(C(=O)NCc4ccn5ccnc5c4)cc3)C2)CC1"
censoringsign = "="
assayvalue = 270

[[record]]
molecule = "CC(C)CCC(=O)Nc1ccc(NC(=O)NCc2ccc3nccn3c2)cc1"
censoringsign = "="
assayvalue = 17.8

[[record]]
molecule = "O=C(NCc1ccc2nccn2c1)c1cnc(N(CC2CCCO2)C(=O)CCc2cnoc2)s1 (stereo not drawn)"
censoringsign = "="
assayvalue = 73.8

[[record]]
molecule = "CC(C)(C)OC(=O)Nc1ccc(C(=O)NCc2ccn3ccnc3c2)cc1"
censoringsign = "="
assayvalue = 1510

[[record]]
molecule = "O=C(NCc1ccn2ccnc2c1)c1ccc(N2C[C@H](O)CC2=O)s1"
censoringsign = "="
assayvalue = 54.3

[[record]]
molecule = "O=C(NCc1ccn2ccnc2c1)c1ccc(C2CCN(C(=O)CC3CCOCC3)C2)cc1 (stereo not drawn)"
censoringsign = "="
assayvalue = 897

[[record]]
molecule = "O=C(Nc1ccc(C(=O)NCCOc2ccccc2)cc1)Nc1ccc2nccn2c1"
censoringsign = "="
assayvalue = 197

[[record]]
molecule = "O=C(NCc1ccn2ccnc2c1)c1ccc(C2CCN(C(=O)c3ccc(C(F)(F)F)cc3)CC2)cc1"
censoringsign = "="
assayvalue = 876

[[record]]
molecule = "CC1CC1C(=O)N1CCC(c2ccc(NC(=O)NCc3ccn4ccnc4c3)cc2)CC1 (stereo not drawn)"
censoringsign = "="
assayvalue = 88.5

[[record]]
molecule = "O=C(NCc1ccn2ccnc2c1)Nc1ccc(C2CCN(C(=O)CN3CCOCC3)C2)cc1 (stereo not drawn)"
censoringsign = "="
assayvalue = 814

[[record]]
molecule = "CC(=O)N1CCC(Oc2ccc(C(=O)NCc3ccc4nccn4c3)cc2)CC1"
censoringsign = "="
assayvalue = 3220

[[record]]
molecule = "O=C(NCc1ccn2ccnc2c1)c1ccc(C2CN(C(=O)CC3CCOCC3)C2)cc1"
censoringsign = "="
assayvalue = 713

[[record]]
molecule = "CCCC(=O)N1CCC(Oc2ccc(C(=O)NCc3ccc4nccn4c3)cc2)CC1"
censoringsign = "="
assayvalue = 1110

[[record]]
molecule = "N#Cc1cccc(C(=O)N2CCC(c3ccc(C(=O)NCc4ccn5ccnc5c4)cc3)CC2)c1"
censoringsign = "="
assayvalue = 413

[[record]]
molecule = "CC(C)(C)OC(=O)N1CC[C@H](Oc2ccc(NC(=O)NCc3ccn4ccnc4c3)cc2)C1"
censoringsign = "="
assayvalue = 159

[[record]]
molecule = "CCC(C)CNC(=O)c1ccc(NC(=O)Nc2ccc3nccn3c2)cc1 (stereo not drawn)"
censoringsign = "="
assayvalue = 404

[[record]]
molecule = "O=C(NCc1ccn2ccnc2c1)Nc1ccc(O[C@@H]2CCN(C(=O)c3ccc(F)cc3)C2)cc1"
censoringsign = "="
assayvalue = 169

[[record]]
molecule = "O=C(NCc1ccn2ccnc2c1)Nc1ccc(C2CCN(C(=O)c3cc(F)ccc3F)CC2)cc1"
censoringsign = "="
assayvalue = 19.6

[[record]]
molecule = "Cc1cc(CC(=O)N(C[C@H]2CCCO2)c2ncc(C(=O)NCc3ccn4ccnc4c3)s2)nn1C"
censoringsign = "="
assayvalue = 1570

[[record]]
molecule = "COCCC(=O)N(Cc1ccc(C#N)cc1)c1ncc(C(=O)NCc2ccn3ccnc3c2)s1"
censoringsign = "="
assayvalue = 5.8

[[record]]
molecule = "O=C(NCc1ccc2nccn2c1)c1ccc(C2=CCN(C(=O)CCC3CCCO3)CC2)cc1 (stereo not drawn)"
censoringsign = "="
assayvalue = 192

[[record]]
molecule = "O=C(NCc1ccc2nccn2c1)c1ccc(OC2CCN(C(=O)C3COCCO3)CC2)cc1 (stereo not drawn)"
censoringsign = "="
assayvalue = 2100

[[record]]
molecule = "COCCNC(=O)N(CC1CCOC1)c1ncc(C(=O)NCc2ccc3nccn3c2)s1 (stereo not drawn)"
censoringsign = "="
assayvalue = 2110


---

# testedSystem: NAMPT (human, recombinant, C-terminally His-tagged) (Homo sapiens, UniProt P43490)
# methodNotes: Time-Resolved Fluorescence Resonance Energy Transfer (TR-FRET) Binding Assay of NAMPT
# settings: without substrates; 6.8 nM NAMPT, 200 nM probe, 3 hours equilibration
# Procedure: Determination of the utility of compounds having Formula (I) as binders to and inhibitors of NAMPT was performed using Time-Resolved Fluorescence Resonance Energy Transfer (TR-FRET) binding assays. Time-Resolved Fluorescence Resonance Energy Transfer (TR-FRET) Binding Assay of NAMPT […]
pIC50: −log10 of the molar value.
Listed here are compounds together with their documented pIC50.
propertyMeasured: pIC50

[[record]]
compound = "O=C(NCc1ccn2ccnc2c1)c1ccc(C2CN(C(=O)c3ccoc3)C2)cc1 [Example 662]"
assayvalue = 6.50

[[record]]
compound = "O=C(Nc1ccc(C(=O)NCC2CCOCC2)cc1)Nc1ccc2nccn2c1 [Example 22]"
assayvalue = 6.40

[[record]]
compound = "CC(C)C(=O)n1cc(-c2ccc(C(=O)NCc3ccc4nccn4c3)s2)cn1 [Example 175]"
assayvalue = 6.16

[[record]]
compound = "Cn1ccc(C(=O)N2CCC(c3ccc(C(=O)NCc4ccn5ccnc5c4)cc3)C2)n1 (centres unmarked) [Example 593]"
assayvalue = 6.12

[[record]]
compound = "COCCNC(=O)N(CC1CCCO1)c1ncc(C(=O)NCc2ccn3ccnc3c2)s1 (centres unmarked) [Example 138]"
assayvalue = 7.09

[[record]]
compound = "COc1ccc(C(=O)N2CCC(c3ccc(C(=O)NCc4ccn5ccnc5c4)s3)C2)cc1 (centres unmarked) [Example 784]"
assayvalue = 7.65

[[record]]
compound = "O=C(NCc1ccn2ccnc2c1)c1ccc(C2CCN(C(=O)c3ccncc3)C2)cc1 (centres unmarked) [Example 608]"
assayvalue = 6.32

[[record]]
compound = "O=C(NCc1ccn2ccnc2c1)Nc1ccc(C2CCN(C(=O)c3ccc(F)cc3)CC2)cc1 [Example 721]"
assayvalue = 6.90

